Entry source: patent US10722501B2

# TEST_SYSTEM: recombinant full-length human prolyl endopeptidase (PREP) (Homo sapiens, UniProt P48147)
# Construct: To recombinant full-length human prolyl endopeptidase (PREP, R&D-Systems, 4308-SE)
# Sequence (P48147 1-710): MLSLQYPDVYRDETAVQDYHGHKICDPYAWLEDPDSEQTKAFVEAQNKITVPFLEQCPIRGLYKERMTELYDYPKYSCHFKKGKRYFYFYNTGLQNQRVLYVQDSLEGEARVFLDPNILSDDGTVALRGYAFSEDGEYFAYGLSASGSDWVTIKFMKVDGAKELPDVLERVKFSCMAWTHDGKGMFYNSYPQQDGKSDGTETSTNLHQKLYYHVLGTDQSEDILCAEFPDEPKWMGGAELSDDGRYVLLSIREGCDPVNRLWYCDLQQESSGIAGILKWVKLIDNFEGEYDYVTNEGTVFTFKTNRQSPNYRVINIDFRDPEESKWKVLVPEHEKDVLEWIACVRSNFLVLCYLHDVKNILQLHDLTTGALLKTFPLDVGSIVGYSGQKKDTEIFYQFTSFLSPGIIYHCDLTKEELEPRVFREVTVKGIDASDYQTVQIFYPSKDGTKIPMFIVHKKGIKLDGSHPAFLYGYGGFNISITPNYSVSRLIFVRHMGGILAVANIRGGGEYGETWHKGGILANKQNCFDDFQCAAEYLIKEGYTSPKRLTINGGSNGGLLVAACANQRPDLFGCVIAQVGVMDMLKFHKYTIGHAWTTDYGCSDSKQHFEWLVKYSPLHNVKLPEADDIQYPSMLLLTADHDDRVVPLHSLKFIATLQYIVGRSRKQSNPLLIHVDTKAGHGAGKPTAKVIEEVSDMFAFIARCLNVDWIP
# PROCEDURE_TEXT: Biochemical human prolyl endopeptidase (PREP) assay with fluorescently labelled substrate
# ASSAY_CONTEXT: substrate Z-Gly-Pro-AMC 50 μM, 32° C., 60 min; some as mean values from multiple independent determinations
pIC50 listing for selected compounds.
Reminder that pIC50 is minus the log10 of a molar concentration.

Reference set, count: 5
O=C([C@@H]1CCCc2nn(Cc3cncc(C(F)(F)F)c3)c(=O)n21)N1CC[C@H](F)C1 [Example 515]
9.23
O=C([C@@H]1CCCc2nn(Cc3ccc(F)c(F)c3)c(=O)n21)N1C[C@@H](F)[C@@H](F)C1 [Example 467]
9.31
O=C(C1CC(C(F)(F)F)Cc2nn(Cc3ncc(Cl)cc3F)c(=O)n21)N1CC[C@H](F)C1 (mixture of isomers) [Example 264]
8.59
O=C([C@@H]1CCCc2nn(CC3(c4ccc(C(F)(F)F)cc4)CC3)c(=O)n21)N1CC[C@H](F)C1 [Example 356]
9.52
O=C(C1CC(C(F)(F)F)Cc2nn(Cc3ccc(Cl)nc3)c(=O)n21)N1CCCC1 (single isomer, unassigned) [Example 229]
9.47

Continue with the compound presented below.
So, O=C([C@@H]1CCC(F)(F)c2nn(Cc3ccc(Cl)cn3)c(=O)n21)N1CC(F)C1 [Example 587] ? Its pIC50 was 8.19

----------
IC50 listing for selected molecules.
# TEST_SYSTEM: recombinant full-length human prolyl endopeptidase (PREP) (Homo sapiens, UniProt P48147)
# Construct: To recombinant full-length human prolyl endopeptidase (PREP, R&D-Systems, 4308-SE)
# PROCEDURE_TEXT: Biochemical human prolyl endopeptidase (PREP) assay with fluorescently labelled substrate
# ASSAY_CONTEXT: substrate Z-Gly-Pro-AMC 50 μM, 32° C., 60 min; some as mean values from multiple independent determinations

CC1Cc2nn(Cc3ccc(C(F)(F)F)nc3)c(=O)n2C(C(=O)N2CC[C@H](F)C2)C1 (single isomer, unassigned) [Example 138]
1 nM
O=C([C@@H]1CCCc2nn(CC3(c4ccc(C(F)(F)F)cc4)CC3)c(=O)n21)N1CC(F)C1
1.2 nM
O=C(C1C(C(F)(F)F)CCc2nn(Cc3ncc(Cl)cc3F)c(=O)n21)N1C[C@@H](F)[C@@H](F)C1 (single isomer, unassigned) [Example 292]
37 nM
Cc1ccc(Cn2nc3n(c2=O)[C@H](C(=O)N2CCC4CC42)CCC3)cc1 (single isomer, unassigned) [Example 188]
0.091 nM

So, "O=C([C@@H]1CCCc2nn(Cc3nnc(C(F)(F)F)o3)c(=O)n21)N1CC(F)C1" ? Its IC50 was 94 nM

So, "O=C([C@@H]1CCCc2nn(Cc3ccc(F)c(Cl)c3)c(=O)n21)N1CCC(F)(F)C1" ? Its IC50 was 0.77 nM

So, CC(c1ccc(Cl)cc1)n1nc2n(c1=O)C(C(=O)N1CCCC1)CCC2 (single isomer, unassigned) [Example 4] ? Its IC50 was 2.2 nM
